# Test system: Pseudomonas aeruginosa PAM1001
# procedure-text: microbe, parasite or virus in culture
# Type: cell-based
# run-parameters: Pseudomonas aeruginosa, PAM1001, read-out: Inhibition (%) of growth of P. aeruginosa PAM1001
Where a name gives a salt, the structure may show the parent alone.
Readings of inhibition at 10 µg/mL for the listed compounds
Give the value in % but do not write % after it.

The following compounds have reported results that may help.
IN: I have this compound here, NCCC[C@@H](N)C(=O)N1C[C@@H](NC(=O)CCCc2ccccc2)C[C@H]1C(=O)Nc1ccc2c(c1)CCC2 [Compound D124, Dihydrochloride] , and I need its recorded inhibition at 10 µg/mL.
OUT: 100

IN: So what does the record say about inhibition at 10 µg/mL for NCC(=O)N[C@@H]1CN[C@@H](C(=O)N2C[C@H](NC(=O)[C@H](O)CCc3ccccc3)C[C@H]2C(=O)Nc2cnc3ccccc3c2)C1 (mixture of isomers) [Compound D105, Trihydrochloride] ?
OUT: 50

Next:
IN: Look at this compound and give its reported inhibition at 10 µg/mL. Cc1cc(NC(=O)[C@@H](CCc2ccccc2)NC(=O)[C@@H]2C[C@@H](NC(=O)CN)CN2)ccc1Cl [Compound D206, Dihydrochloride]
OUT: 100
